Data origin: ChEMBL document CHEMBL1201861

System: MKN-28
testDetails: cells
Format: functional, cell-based
conditionParameters: Homo sapiens
Description: SANGER: Inhibition of human MKN28 cell growth in a cell viability assay.
property: IC50 (nM)
Respond numerically; units are nM and should not be typed.

## Task # get_value(readout= IC50, system= MKN-28) for CO[C@@]12[C@H](COC(N)=O)C3=C(C(=O)C(C)=C(N)C3=O)N1C[C@@H]1N[C@@H]12;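 note: cell viability assay read-out, IC50 reflects suppression of growth of human MKN-28 cells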
## Result 230

## Task Queued: CC[C@]1(O)C[C@@H]2CN(CCc3c([nH]c4ccccc34)[C@@](C(=O)OC)(c3cc4c(cc3OC)N(C)[C@H]3[C@@](O)(C(=O)OC)[C@H](OC(C)=O)[C@]5(CC)C=CCN6CC[C@]43[C@@H]65)C2)C1
## Result 2.7

## Task Next: CC[C@@]1(O)C(=O)OCc2c1cc1n(c2=O)Cc2cc3ccccc3nc2-1
## Result 51.2

## Task What about this molecule? CCNC(=O)c1noc(-c2cc(C(C)C)c(O)cc2O)c1-c1ccc(CN2CCOCC2)cc1
## Result 30.1
